# Read-out: CD38, CD38 (gene 952)
# PROTOCOL: BSK_SAg_CD38: BioMAP Diversity Plus: SAg Assay for CD38 Biomarker Activity (AID 2283087)
# APPLIED_CONDITIONS: primary human HUVEC with PBMC; actives raise or lower the signal
The source made the active and inactive calls. The calls were made as follows: active = hit-call score of the fitted dose curve at least 0.9, where 1 is the maximum; inactive = score below 0.9.
Respond using exactly one of the listed classes: active, inactive

Q. Could you check what this test reported for CC1(C)C(C=C(Cl)Cl)C1C(=O)OC(C#N)c1ccc(F)c(Oc2ccccc2)c1 (stereo not drawn) ?
A. inactive

Q. Please let me know the test result on file for COC(=O)c1ccccc1S(=O)(=O)NC(=O)N(C)c1nc(C)nc(OC)n1 .
A. inactive

Q. How was O=[N+]([O-])/N=C1\NCCN1Cc1ccc(Cl)nc1 classified in this test?
A. inactive

Q. In this assay, the call recorded for CC1(c2ccc(Oc3ccccc3)cc2)OC(=O)N(Nc2ccccc2)C1=O (stereo not drawn) was what?
A. active

Q. Could you please tell me the result logged for O=S(=O)(O)C(F)(F)C(F)(F)C(F)(F)C(F)(F)C(F)(F)C(F)(F)C(F)(F)C(F)(F)F in this assay?
A. inactive

Q. Please indicate how the test categorized O=C(O)COc1ccc(Cl)cc1Cl .
A. inactive

Q. Record request — test call for CC[C@H](C)[C@H]1O[C@]2(C=C[C@@H]1C)C[C@@H]1C[C@@H](C/C=C(\C)[C@@H](O[C@H]3C[C@H](OC)[C@@H](O[C@H]4C[C@H](OC)[C@@H](O)[C@H](C)O4)[C@H](C)O3)[C@@H](C)/C=C/C=C3\CO[C@@H]4[C@H](O)C(C)=C[C@@H](C(=O)O1)[C@]34O)O2 (tested in a mixture with another compound)
A. active

Q. Could you please tell me the result logged for N#CN in this assay?
A. inactive
